- experimental-details: AlamarBlue cell viability assay, non-cancerous colon FHC cells
- condition-summary: human, FHC non-cancerous colon cells, Human Cell Viability CC50 Colon (FHC), non-cancerous colon cells, AlamarBlue, 48 h
Parameter: CC50 at 48 h. Scope: all listed entries.
measure-name: CC50 at 48 h

| compound | measure-name | result |
| --- | --- | --- |
| O=C(N/N=C/c1ccc([N+](=O)[O-])o1)c1ccccc1 [Compound 122] | CC50 at 48 h | > 100 µM |
| O=C(N/N=C/c1ccc(O)c2ncccc12)c1ccc(O)cc1 [Compound 139] | CC50 at 48 h | > 100 µM |
| CC1CS(=O)(=O)CCN1/N=C/c1ccc([N+](=O)[O-])o1 (stereo not shown) [Nifurtimox (Nfx - 106), Nifurtimox, reference compound] | CC50 at 48 h | > 100 µM |
| COc1ccc(C(=O)NN)cc1 [Compound 161] | CC50 at 48 h | > 100 µM |
| CC(C)n1c(/C=C/C(O)CC(O)CC(=O)O)c(-c2ccc(F)cc2)c2ccccc21 (stereo not shown) [Compound 82, Fluvastatin sodium, reference compound] | CC50 at 48 h | > 100 µM |
| COc1ccc(C(=O)N/N=C/c2ccco2)cc1 [Compound 158] | CC50 at 48 h | > 100 µM |
| CC(=O)O[C@H]1C(=O)[C@@]2(C)[C@H]([C@H](OC(=O)c3ccccc3)[C@]3(O)C[C@H](OC(=O)[C@H](O)[C@@H](NC(=O)c4ccccc4)c4ccccc4)C(C)=C1C3(C)C)[C@]1(OC(C)=O)CO[C@@H]1C[C@@H]2O [Compound 70, Paclitaxel, reference compound] | CC50 at 48 h | > 100 µM |
